tested on: UACC-257 melanoma; test: NCI tumour cell line growth inhibition, 48 h
Property Label: TGI

Known results for compounds:
>  <Compound>
O=C(Cc1ccccc1)c1ccc2[nH]c(=O)oc2c1

>  <Property Label>
TGI

>  <Measured>
> 100 µM

$$$$
>  <Compound>
CCOC(CN=c1nc(N(C)C)ss1)OCC

>  <Property Label>
TGI

>  <Measured>
40.7 µM

$$$$
>  <Compound>
Cc1cc2oc(=O)[nH]c(=S)c2c(C)c1C

>  <Property Label>
TGI

>  <Measured>
> 100 µM

$$$$
>  <Compound>
C=C(CN1CCc2ccccc2C1)c1ccc(C(=O)Nc2ccc(N)cc2)cc1

>  <Property Label>
TGI

>  <Measured>
59.7 µM

$$$$
>  <Compound>
CC(=O)O[C@H]1C(=O)[C@@]2(C)[C@H]([C@H](OC(=O)C3CCCCC3)[C@]3(O)C[C@H](OC(=O)[C@H](O)[C@@H](NC(=O)C4CCCCC4)C4CCCCC4)C(C)=C1C3(C)C)[C@]1(OC(C)=O)CO[C@@H]1C[C@@H]2O

>  <Property Label>
TGI

>  <Measured>
4.24 µM

$$$$
>  <Compound>
N#CS/C(Cl)=C(/C(Cl)=C(Cl)Cl)[N+](=O)[O-]

>  <Property Label>
TGI

>  <Measured>
> 100 µM

$$$$

Would you be so kind as to report TGI for each listed record?
1. O=C(c1ccccc1)c1c(C(=O)c2ccccc2)c(-c2ccccc2)c2c(-c3ccccc3)sc(-c3ccccc3)c2c1-c1ccccc1
2. O=S1(=O)C[C@@H](O)[C@H](O)CS1
3. CCN(CC)CCCCCCCNc1c2ccc(Cl)cc2nc2ccc(OC)cc12
4. CC(C)C(N=Cc1ccccc1O)C(=O)O (centres undefined)
5. OCCCCC#Cc1ccccc1C#Cc1ccccc1C(F)(F)F
6. COc1cc2c(/C=C3/C(=O)Nc4ccccc43)c(Cl)n(Cc3ccccc3[N+](=O)[O-])c2cc1C
7. Fc1ccc(-c2ccc(-c3nnc(-c4cc(F)c(Cl)cc4Cl)o3)o2)cc1Cl
8. CC(C)/C=N\n1c(N)c(C#N)c(C#N)c1C(C)C

> 100 µM
> 100 µM
3.08 µM
> 100 µM
31.9 µM
85.5 µM
> 100 µM
50.3 µM

Record TGI per entry; entries follow.
1. COC(=O)c1c(CC#N)cccc1CC#N
2. O=C1/C(=C\c2cccc(Oc3ccccc3)c2)SC(c2ccccc2)N1c1ccc(Cl)cc1 (centres undefined)
3. O=c1cc(-c2cccc(OC(F)(F)F)c2)[nH]c2cc3c(cc12)OCO3
4. O=C(Nc1nc(C23CC4CC(CC(C4)C2)C3)cs1)c1cc2cc(Br)cc(Br)c2oc1=O
5. CCOC(=O)c1ccc(C(=O)/C(C#N)=C2\CCCN2)[nH]1
6. Cc1cc(C)nc(Nc2nc3ccc([N+](=O)[O-])cc3[nH]2)n1
7. CC1NC(/C(=C/c2ccccc2O)NC(=O)c2ccccc2)OC1=O (centres undefined)
8. CC(C(=O)Oc1ccc2ccccc2c1-c1c(O)ccc2ccccc12)c1ccccc1 (centres undefined)

["> 100 µM", "> 100 µM", "> 100 µM", "> 100 µM", "> 100 µM", "> 100 µM", "> 50 µM", "27.6 µM"]

State the recorded TGI for every item in the following list.
1. O=S(=O)(c1ccc(I)cc1)N(c1ccccc1)S(=O)(=O)C(F)(F)C(F)(F)C(F)(F)C(F)(F)F
2. C[N+](C)(CCCCCC[N+](C)(C)CCCN1C(=O)c2cc3ccccc3cc2C1=O)CCCN1C(=O)c2ccccc2C1=O
3. O=C(NOCC1CC1)c1ccc(F)c(F)c1Nc1ccc(I)cc1Cl
4. N.N.NC(CS)C(=O)[O-].NC(CS)C(=O)[O-].[Pt+4] (centres undefined)
5. CC1(O)/C(=N/O)CC2CC1C2(C)C (centres undefined)

["> 100 µM", "> 37.5 µM", "0.517 µM", "> 50 µM", "> 100 µM"]

# return TGI for each item in the list
1. COc1cc(-c2coc3c(OC)c(OC4OC(CO)C(O)C(O)C4O)c(OC)cc3c2=O)cc(OC)c1C (centres undefined)
2. CN(C)CCCNC(=O)c1cc(NC(=O)c2cc(NC(=O)c3cc(NC(=O)CCc4c[nH]c5ccccc45)cn3C)cn2C)cn1C
3. CC(=O)OCC1OC(n2c(=O)n(-c3ccccc3)c(=O)c3ccccc32)C(OC(C)=O)C(OC(C)=O)C1OC(C)=O (centres undefined)
4. Cc1cc(Cl)ccc1N=NC(=O)NNc1ccc(Cl)cc1C
5. CC(=O)Nc1ccc2c(C)c3c4ccccc4n(C)c3nc2n1
6. COc1ccc(-c2nc(-c3ccccc3)c(-c3ccccc3)n2C2CC2)cc1OC1CCCC1
7. COc1cc2cc(C(=O)N3CC(CCl)c4ccc(NCCN)cc43)[nH]c2c(OC)c1OC (centres undefined)

["> 31.6 µM", "> 100 µM", "> 100 µM", "33.1 µM", "57.5 µM", "> 165 µM", "0.637 µM"]
